STUDY SYSTEM: enkephalinase (Rattus norvegicus)
Construct: synaptic membrane preparation from rat striatum; from tissue; host or cells: rat striatum, synaptic membrane preparation
Sequence (P07861 whole entry): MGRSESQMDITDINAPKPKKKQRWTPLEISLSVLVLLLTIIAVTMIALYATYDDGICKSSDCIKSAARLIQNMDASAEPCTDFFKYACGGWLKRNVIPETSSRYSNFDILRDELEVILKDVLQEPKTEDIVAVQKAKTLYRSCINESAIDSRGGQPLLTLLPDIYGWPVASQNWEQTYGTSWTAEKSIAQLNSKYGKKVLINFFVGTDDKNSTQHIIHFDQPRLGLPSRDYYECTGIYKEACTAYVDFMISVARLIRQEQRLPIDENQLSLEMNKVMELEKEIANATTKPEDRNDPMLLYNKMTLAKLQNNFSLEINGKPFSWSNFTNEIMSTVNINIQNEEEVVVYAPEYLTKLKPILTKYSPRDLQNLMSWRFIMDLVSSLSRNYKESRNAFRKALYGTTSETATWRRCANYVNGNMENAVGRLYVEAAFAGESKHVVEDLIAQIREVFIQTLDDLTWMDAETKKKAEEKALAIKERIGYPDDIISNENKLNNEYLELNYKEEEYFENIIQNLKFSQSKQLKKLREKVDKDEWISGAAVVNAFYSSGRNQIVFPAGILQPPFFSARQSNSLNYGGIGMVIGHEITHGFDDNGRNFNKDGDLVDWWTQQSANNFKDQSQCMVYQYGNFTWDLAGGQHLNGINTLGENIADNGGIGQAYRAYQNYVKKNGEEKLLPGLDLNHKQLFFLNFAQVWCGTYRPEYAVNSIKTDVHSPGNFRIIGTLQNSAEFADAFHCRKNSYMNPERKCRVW
METHOD NOTES: enkephalinase inhibitory activity in vitro (inhibition of 3H-Tyr-gly-gly generation from 3H-Leu-enkephalin)
Assay type: biochemical
CONDITION NOTES: rat striatum synaptic membrane preparation, pH 6.5, 3H-Leu-enkephalin, 15 minutes at 30° C., 10^-6 M Bestatin
MEASURE: IC50

enkephalinase (Rattus norvegicus) IC50 of `O=C(O)[C@H](Cc1ccccc1)C[C@@H](Cc1ccccc1)C(=O)N[C@@H](CSCc1ccccc1)C(=O)O` is ~6 nM

Item `O=C(O)[C@H](Cc1ccccc1)C[C@@H](Cc1ccccc1)C(=O)N[C@@H](CCc1ccccc1)C(=O)O` was tested on enkephalinase (Rattus norvegicus); the reported IC50 is ~5 nM
